Form field: MIC (one value per entry).
# Tested on: Staphylococcus aureus
# Method summary: Susceptibility testing (MIC) Assay 1, broth microdilution
# Format: cell-based
# Details: Staphylococcus aureus, in vivo strain, MRQR; read-out: Sau(e) MIC
API: value field is a number in µM; no unit string.

**Q:** Provide one value: measured MIC of C[C@@H]1CN2c3c(cc4c(N5C(=O)O[C@H](C)[C@@H]5C)noc4c3F)CC3(C(=O)NC(=O)NC3=O)[C@H]2[C@H](C)O1
**A:** 0.78

**Q:** Provide one value: measured MIC of COC[C@@H]1COC(=O)N1c1noc2c(F)c3c(cc12)CC1(C(=O)NC(=O)NC1=O)[C@H]1[C@H](C)O[C@H](C)CN31
**A:** 6.2

**Q:** Provide one value: measured MIC of COC[C@H]1CN(c2noc3c(Cl)c4c(cc23)CC2(C(=O)NC(=O)NC2=O)[C@H]2[C@H](C)O[C@H](C)CN42)C(=O)O1
**A:** 3.1

**Q:** Provide one value: measured MIC of C[C@@H]1CN2c3c(cc4c(N5C(=O)OC[C@@H]5CCCF)noc4c3Cl)CC3(C(=O)NC(=O)NC3=O)[C@H]2[C@H](C)O1
**A:** 0.78

**Q:** Provide one value: measured MIC of C[C@@H]1CN2c3c(cc4c(N5C(=O)OC[C@@H]5C)noc4c3Cl)CC3(C(=O)NC(=O)NC3=O)[C@H]2[C@H](C)O1
**A:** 0.78

**Q:** Provide one value: measured MIC of CON=C[C@H]1COC(=O)N1c1noc2c(F)c3c(cc12)CC1(C(=O)NC(=O)NC1=O)[C@H]1[C@H](C)O[C@H](C)CN31
**A:** 0.39
